- System: Enterococcus faecium
- protocol: Antibacterial activity against vancomycin-sensitive Enterococcus faecium incubated for 6 to 8 hrs by MABA
- Format: functional
- setup-conditions: time 6-8 hrs
Recorded MIC for the following compounds
measurement-label: MIC (µg/mL)

>  <smiles>
COc1cc(C)c(-c2nc(C)cc3cc4c(c(O)c23)C(=O)c2c(cc(OC)c(Cl)c2OC)C4(C)C)c(OC)c1

>  <measurement-label>
MIC

>  <value-qualifier>
>

>  <measured-number>
10

$$$$
>  <smiles>
COc1cc(-c2c(O)cc(O)c(Cl)c2C)c2c(O)c3c(cc2c1)C(C)(C)c1cc(OC)c(Cl)c(O)c1C3=O

>  <measurement-label>
MIC

>  <value-qualifier>
=

>  <measured-number>
1.25

$$$$
>  <smiles>
COc1cc(-c2c(O)cc(OC)c(Cl)c2C)c2c(O)c3c(cc2c1)C(C)(C)c1cc(OC)c(Cl)c(O)c1C3=O

>  <measurement-label>
MIC

>  <value-qualifier>
>

>  <measured-number>
10

$$$$
>  <smiles>
COc1cc(C)c(-c2cc(OC)cc3cc4c(c(O)c23)C(=O)c2c(cc(OC)c(Cl)c2OC)C4(C)C)c(O)c1

>  <measurement-label>
MIC

>  <value-qualifier>
>

>  <measured-number>
10

$$$$
>  <smiles>
COc1cc(C)c(-c2cc(O)cc3cc4c(c(O)c23)C(=O)c2c(cc(OC)c(Cl)c2OC)C4(C)C)c(O)c1

>  <measurement-label>
MIC

>  <value-qualifier>
=

>  <measured-number>
2.5

$$$$
>  <smiles>
COc1cc(C)c(-c2cc(OC)c(Cl)c3cc4c(c(O)c23)C(=O)c2c(cc(OC)c(Cl)c2O)C4(C)C)c(O)c1

>  <measurement-label>
MIC

>  <value-qualifier>
>

>  <measured-number>
10

$$$$
>  <smiles>
COc1cc(C)c(-c2cc(OC)cc3cc4c(c(O)c23)C(=O)c2c(cc(O)c(Cl)c2O)C4(C)C)c(O)c1

>  <measurement-label>
MIC

>  <value-qualifier>
=

>  <measured-number>
2.5

$$$$
>  <smiles>
COc1cc(C)c(-c2cc(OC)cc3cc4c(c(O)c23)C(=O)c2c(O)cc(O)cc2C4(C)C)c(O)c1

>  <measurement-label>
MIC

>  <value-qualifier>
=

>  <measured-number>
1.25

$$$$
